Give IC50 for every item shown.
TARGET_SYSTEM: S. aureus Uridine-diphosphate-N-acetylmuramoyl-L-alanine: D-glutamate liease, MurD (Staphylococcus aureus)
Sequence (Q2FZ92 whole entry): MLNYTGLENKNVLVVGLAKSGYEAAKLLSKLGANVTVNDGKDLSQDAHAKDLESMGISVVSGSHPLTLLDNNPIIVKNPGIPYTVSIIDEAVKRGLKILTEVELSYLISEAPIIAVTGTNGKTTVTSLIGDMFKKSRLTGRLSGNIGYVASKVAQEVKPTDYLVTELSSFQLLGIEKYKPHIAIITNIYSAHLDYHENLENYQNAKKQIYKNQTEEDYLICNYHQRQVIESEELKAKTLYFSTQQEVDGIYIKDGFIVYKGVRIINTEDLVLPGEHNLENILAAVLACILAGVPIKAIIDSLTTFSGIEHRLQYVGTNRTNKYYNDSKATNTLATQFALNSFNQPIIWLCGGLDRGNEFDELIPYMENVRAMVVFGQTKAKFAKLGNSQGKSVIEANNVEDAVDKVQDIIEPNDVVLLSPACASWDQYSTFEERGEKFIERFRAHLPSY

Ask: Form field: reported IC50 of O=C1O/C(=C\c2ccc3ccccc3c2)C(O)=C1c1ccc(Cl)cc1
Result: > 71.7 µM

Ask: What value of IC50 has been recorded for this entry: O=C1O/C(=C\c2cccnc2)C(O)=C1c1ccc(-c2ccccc2)cc1
Result: > 73.2 µM

Ask: # get_value(readout='IC50', item= O=C1O/C(=C\C2CCCCC2)C(O)=C1c1cccc(C(F)(F)F)c1 )
Result: > 73.9 µM

Ask: Query (compound): Cc1ccc(/C=C2\OC(=O)C(c3ccc(-c4ccccc4)cc3)=C2O)s1 ; field requested: IC50
Result: > 69.4 µM

Ask: Recorded IC50 for COc1cc(/C=C2\OC(=O)C(c3cc(Cl)cc(Cl)c3)=C2O)ccc1-c1ccccc1C(F)(F)F , please?
Result: > 49.3 µM

Ask: Quick one: IC50 of O=C1O/C(=C\c2ccc(-c3ccccc3F)cc2)C(O)=C1c1ccccc1F ?
Result: > 66.4 µM

Ask: Tell me the measured IC50 of O=C1O/C(=C\c2ccc(-c3cc(Cl)cc(Cl)c3)cc2)C(O)=C1c1cc(Cl)cc(Cl)c1 , please.
Result: > 52.3 µM

Ask: Value lookup for IC50; key = Cc1cc(/C=C2\OC(=O)C(c3cccc(Cl)c3)=C2O)ccc1-c1ccccc1Cl
Result: > 59.1 µM

Ask: Quick one: IC50 of O=C1O/C(=C\C2CCCCC2)C(O)=C1c1ccc2ccccc2c1 ?
Result: > 78 µM

Ask: State the recorded IC50 for this entry: O=C1O/C(=C\c2ccc(Cl)cc2)C(O)=C1c1ccc(-c2ccccc2)c(F)c1
Result: 35.6 µM

Ask: Report IC50 for CN(C)c1ccc(/C=C2\OC(=O)C(c3ccc(C(F)(F)F)cc3)=C2O)c2ccccc12 please.
Result: > 58.8 µM

Ask: IC50 lookup needed for O=C1O/C(=C\c2ccc(C(F)(F)F)cc2)C(O)=C1c1ccc(-c2ccccc2)cc1 , thanks.
Result: > 61.2 µM

Ask: For the compound O=C1O/C(=C\c2ccccc2-c2cccc(Cl)c2)C(O)=C1c1cccc(Cl)c1 , what IC50 is on record?
Result: 48.9 µM

Ask: For the compound shown here, O=C1O/C(=C\c2ccc(-c3ccccc3)cc2)C(O)=C1c1ccc2ccccc2c1 , give the reported IC50.
Result: > 64 µM

Ask: Request the reported IC50 associated with COc1ccccc1-c1ccc(/C=C2\OC(=O)C(c3cc(Cl)cc(Cl)c3)=C2O)cc1C
Result: 24.3 µM

Ask: Name the reported IC50 value associated with the compound Cc1ccccc1-c1ccc(/C=C2\OC(=O)C(c3cccc(Cl)c3)=C2O)cc1C
Result: > 62.1 µM

Ask: # lookup: IC50 of O=C1O/C(=C\c2cccc(C(F)(F)F)c2)C(O)=C1c1ccc(-c2ccccc2)c(F)c1
Result: 37.5 µM

Ask: Please look up its IC50: O=C1O/C(=C\c2ccc(-c3ccccc3)cc2)C(O)=C1c1cccs1
Result: 57.7 µM

###

For each record, write down the corresponding log10 of MIC.
Tested on: enterococci
EXPERIMENT: Minimum inhibitory concentration, microdilution broth method, enterococci
Format: cell-based
TEST_PARAMETERS: Enterococcus faecalis, E. faecalis GC 2242; Mueller-Hinton broth, 18-22 hours at 35° C.; read-out: MIC E. faecalis GC 2242
Could you please treat all values as log10 of MIC in µg/mL?

Ask: Item O=C1O/C(=C\c2cccc(-c3cccc(Cl)c3)c2)C(O)=C1c1cccc(Cl)c1 has what recorded log10 of MIC?
Result: 0.60

Ask: Can you look up the measured log10 of MIC of CC(C)(C)c1ccc(-c2ccc(C3=C(O)/C(=C/c4cccc(C(F)(F)F)c4)OC3=O)cc2)cc1 for me?
Result: 0.60

Ask: Which measured log10 of MIC value corresponds to O=C1O/C(=C\c2cc(C(F)(F)F)ccc2Cl)C(O)=C1c1ccc(-c2ccccc2)cc1 ?
Result: 0.60

Ask: What measured log10 of MIC goes with Cc1ccc(/C=C2\OC(=O)C(c3ccc(-c4ccccc4)cc3)=C2O)s1 ?
Result: 1.51

Ask: Name the recorded log10 of MIC for O=C1O/C(=C\c2cccc(-c3cc(Cl)cc(Cl)c3)c2)C(O)=C1c1cc(Cl)cc(Cl)c1 .
Result: -0.30

Ask: Would you kindly share the measured log10 of MIC for O=C1O/C(=C\C2CCCCC2)C(O)=C1c1ccc2ccccc2c1 ?
Result: 0.90

Ask: Sample O=C1O/C(=C\c2ccc(-c3ccccc3)cc2)C(O)=C1c1ccc(Cl)cc1Cl — what was its log10 of MIC?
Result: 0.60

Ask: log10 of MIC for CC(C)(C)c1ccc(-c2ccc(C3=C(O)/C(=C/c4ccc(Cl)c(C(F)(F)F)c4)OC3=O)cc2)cc1 ?
Result: 0.60

Ask: Item under review: O=C1O/C(=C\C2CCCCC2)C(O)=C1c1cccc(C(F)(F)F)c1 . Reported log10 of MIC?
Result: 1.51

Ask: For the molecule COc1ccccc1-c1ccc(/C=C2\OC(=O)C(c3cc(Cl)cc(Cl)c3)=C2O)cc1C , what log10 of MIC is on record?
Result: 0.60

Ask: Record request: log10 of MIC value, item O=C1O/C(=C\c2ccc(-c3ccccc3F)cc2)C(O)=C1c1ccccc1F
Result: 1.20

Ask: Fill in: log10 of MIC of O=C1O/C(=C\c2cccc3ccccc23)C(O)=C1c1ccc(Cl)cc1 is ___
Result: 0.90

Ask: Can you look up the measured log10 of MIC of Cc1ccc(C2=C(O)/C(=C/c3ccc(-c4ccc(C)cc4)cc3)OC2=O)cc1 for me?
Result: 0.30

Ask: Field request: log10 of MIC | item: Cc1ccc(/C=C2\OC(=O)C(c3ccc4ccccc4c3)=C2O)s1
Result: 1.51

Ask: Can you share its log10 of MIC? I mean this molecule: CC(C)(C)c1ccc(-c2ccc(C3=C(O)/C(=C/c4cc(C(F)(F)F)ccc4F)OC3=O)cc2)cc1
Result: 0.60

Ask: Quick one: log10 of MIC for O=C1O/C(=C\c2cccc(C(F)(F)F)c2)C(O)=C1c1ccc2ccccc2c1 ?
Result: 0.90

Ask: Value lookup for log10 of MIC; key = CCCc1ccc(-c2ccc(C3=C(O)/C(=C/c4cc(F)cc(C(F)(F)F)c4)OC3=O)cc2)cc1
Result: 0.00

Ask: Fill in the blank: the reported log10 of MIC of COc1cc(/C=C2\OC(=O)C(c3cccc(Cl)c3)=C2O)ccc1-c1ccccc1C(F)(F)F is ____.
Result: 0.60

Ask: Return reported log10 of MIC; argument: CCCc1ccc(-c2ccc(C3=C(O)/C(=C/c4cccc(C(F)(F)F)c4Cl)OC3=O)cc2)cc1
Result: -0.60

Ask: Any idea what log10 of MIC was measured for COc1cc(/C=C2\OC(=O)C(c3cccc(Cl)c3)=C2O)ccc1-c1ccccc1Cl ?
Result: 0.90

Ask: I have this molecule here, CCOc1ccc(-c2ccc(C3=C(O)/C(=C/c4cccc(C(F)(F)F)c4)OC3=O)cc2)cc1 , and I need its recorded log10 of MIC.
Result: 0.90

Ask: What does the record list as log10 of MIC for O=C1O/C(=C\c2ccc(-c3ccc(Cl)cc3)cc2)C(O)=C1c1ccc(Cl)cc1 ?
Result: 0.30

###

Test system: enterococci
EXPERIMENT: Minimum inhibitory concentration, microdilution broth method, enterococci
Type: cell-based
TEST_PARAMETERS: Enterococcus faecalis, E. faecalis GC 4555; Mueller-Hinton broth, 18-22 hours at 35° C.; read-out: MIC E. faecalis GC 4555
QUANTITY_NAME: log10 MIC (log10 of the value in µg/mL)
In plain terms, each number is the log10 of measured MIC in µg/mL.

Ask: Form field: reported log10 MIC of CCOc1ccc(-c2ccc(C3=C(O)/C(=C/c4cccc(C(F)(F)F)c4)OC3=O)cc2)cc1
Result: 1.20

Ask: // log10 MIC lookup, key: O=C1O/C(=C\c2ccc(-c3cc(Cl)cc(Cl)c3)cc2)C(O)=C1c1cc(Cl)cc(Cl)c1
Result: 0.00

Ask: Query (compound): CC(C)(C)c1ccc(-c2ccc(C3=C(O)/C(=C/c4cc(C(F)(F)F)ccc4F)OC3=O)cc2)cc1 ; field requested: log10 MIC
Result: 0.90

Ask: Item under review: CCOc1ccc(-c2ccc(C3=C(O)/C(=C/c4cc(C(F)(F)F)ccc4F)OC3=O)cc2)cc1 . Reported log10 MIC?
Result: 1.51

Ask: Consider the compound shown here: Cc1ccc(/C=C2\OC(=O)C(c3ccc4ccccc4c3)=C2O)s1 What is its recorded log10 MIC?
Result: 1.81

Ask: Value lookup for log10 MIC; key = O=C1O/C(=C\c2cccc3ccccc23)C(O)=C1c1cc(Cl)cc(Cl)c1
Result: 0.30

Ask: Need log10 MIC of CCCc1ccc(-c2ccc(C3=C(O)/C(=C/c4cc(F)cc(C(F)(F)F)c4)OC3=O)cc2)cc1 , thanks.
Result: 1.20

Ask: Sample O=C1O/C(=C\c2cc(F)cc(C(F)(F)F)c2)C(O)=C1c1cccc(-c2ccccc2)c1 — what was its log10 MIC?
Result: 0.60

Ask: Given O=C1O/C(=C\c2cccc(-c3cccc(Cl)c3)c2)C(O)=C1c1cccc(Cl)c1 , state its recorded log10 MIC.
Result: 0.90

Ask: Record request: log10 MIC value, item COc1cc(/C=C2\OC(=O)C(c3cccc(Cl)c3)=C2O)ccc1-c1ccccc1C
Result: 1.20
